This collection of values is drawn from patent US20180291096A1.

# Target Under Test: T1, recombinant human IL-23 (hrIL-23), produced at Centocor (human, UniProt P29460 23-328)
# T1 sequence 1: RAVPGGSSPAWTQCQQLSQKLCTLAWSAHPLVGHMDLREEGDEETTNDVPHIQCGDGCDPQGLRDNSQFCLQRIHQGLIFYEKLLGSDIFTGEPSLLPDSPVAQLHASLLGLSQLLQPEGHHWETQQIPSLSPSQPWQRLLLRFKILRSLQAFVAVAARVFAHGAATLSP
# T1 sequence 2: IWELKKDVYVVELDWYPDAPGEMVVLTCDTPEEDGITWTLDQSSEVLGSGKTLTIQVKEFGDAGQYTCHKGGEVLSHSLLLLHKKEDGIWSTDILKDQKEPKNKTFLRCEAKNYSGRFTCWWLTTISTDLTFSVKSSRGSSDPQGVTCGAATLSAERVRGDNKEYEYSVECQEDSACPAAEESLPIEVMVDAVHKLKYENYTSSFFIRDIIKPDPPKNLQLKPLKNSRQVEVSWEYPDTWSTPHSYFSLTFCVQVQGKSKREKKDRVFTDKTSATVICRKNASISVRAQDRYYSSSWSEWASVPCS
# Assay Text: cell-based or functional assay
Measurement Name: IC50, inhibition of IL-17 production

Quick one: IC50, inhibition of IL-17 production of MOR05043 mAb (antibody, human IgG1, V domains shown) VH: QVELVQSGAEVKKPGESLKISCKGSGYSFSNYWIGWVRQMPGKGLEWMGFISPDGSHTWYSPSFQGQVTISADKSISTAYLQWSSLKASDTAMYYCARWYYKPFDVWGQGTLVTVSS VL: DIVLTQPPSVSGAPGQRVTISCTGSSSNIGSGYDVHWYQQLPGTAPKLLIYGNSKRPSGVPDRFSGSKSGTSASLAITGLQSEDEADYYCSSWTPSSVVFGGGTKLTVL ? 0.0144 µg/mL

MOR05052 mAb (antibody, human IgG1, V domains shown) VH: QVELVESGGGLVQPGGSLRLSCAASGFTFSSFGMSWVRQAPGKGLEWVSSIEHKYLSYTTFYAASVKGRFTISRDNSKNTLYLQMNSLRAEDTAVYYCARYWGTPYLMQFDNWGQGTLVTVSS VL: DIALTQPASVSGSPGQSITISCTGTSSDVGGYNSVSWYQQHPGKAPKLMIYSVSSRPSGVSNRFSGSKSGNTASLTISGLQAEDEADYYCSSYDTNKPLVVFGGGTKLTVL , same question. 0.0178 µg/mL

MOR05058 mAb (antibody, human IgG1, V domains shown) VH: QVELVQSGAEVKKPGESLKISCKGSGYSFSNYWIGWVRQMPGKGLEWMGIIDPSNSYTNYSPSFQGQVTISADKSISTAYLQWSSLKASDTAMYYCARWYYKPFDVWGQGTLVTVSS VL: DIVLTQPPSVSGAPGQRVTISCTGSSSNIGSGYDVHWYQQLPGTAPKLLIYGNSKRPSGVPDRFSGSKSGTSASLAITGLQSEDEADYYCSSWTDTPNMIVFGGGTKLTVL , same question. 0.00285 µg/mL
